I'd be grateful if you could share measured ATG_PXR_TRANS for these entries.
target: PXR (NR1I2) (Homo sapiens); experiment: ATG_PXR_TRANS: Factorial reporter gene assay (HepG2); type: cell-based; design: endogenous in cells; host or cells: HepG2; conditions: HepG2 reporter
Sequence (O75469 whole entry): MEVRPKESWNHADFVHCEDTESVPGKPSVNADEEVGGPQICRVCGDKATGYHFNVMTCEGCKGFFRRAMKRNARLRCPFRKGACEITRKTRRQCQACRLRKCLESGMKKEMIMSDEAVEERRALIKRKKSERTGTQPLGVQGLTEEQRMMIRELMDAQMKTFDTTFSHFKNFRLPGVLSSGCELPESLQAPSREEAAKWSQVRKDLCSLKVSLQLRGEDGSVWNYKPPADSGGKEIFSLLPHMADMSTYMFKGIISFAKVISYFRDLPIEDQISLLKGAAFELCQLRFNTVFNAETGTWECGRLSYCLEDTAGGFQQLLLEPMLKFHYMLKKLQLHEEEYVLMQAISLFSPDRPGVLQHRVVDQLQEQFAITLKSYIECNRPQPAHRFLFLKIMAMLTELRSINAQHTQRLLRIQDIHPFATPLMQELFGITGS
The answer should be a number; do not append a unit.

ATG_PXR_TRANS reported for this molecule CCOC(=O)COc1cc(-c2nn(C)c(OC(F)F)c2Cl)c(F)cc1Cl [r271] : 4.538

// ATG_PXR_TRANS lookup, molecule = Cc1nn(-c2cc(NS(C)(=O)=O)c(Cl)cc2Cl)c(=O)n1C(F)F [r287] , result: 4.469

So, CC(C)=CC1C(C(=O)OCc2coc(Cc3ccccc3)c2)C1(C)C (stereo not shown) [r280] ? Its ATG_PXR_TRANS was 4.638

Consider C#CC(C)(C)NC(=O)c1cc(Cl)cc(Cl)c1 [r265] . Its measured ATG_PXR_TRANS is 4.409
